Entry source: patent US20260242735A1

Study Target: human CD33 variant Y50I (human, UniProt P20138 18-364)
Sequence (P20138 18-364 Y50I limits assumed): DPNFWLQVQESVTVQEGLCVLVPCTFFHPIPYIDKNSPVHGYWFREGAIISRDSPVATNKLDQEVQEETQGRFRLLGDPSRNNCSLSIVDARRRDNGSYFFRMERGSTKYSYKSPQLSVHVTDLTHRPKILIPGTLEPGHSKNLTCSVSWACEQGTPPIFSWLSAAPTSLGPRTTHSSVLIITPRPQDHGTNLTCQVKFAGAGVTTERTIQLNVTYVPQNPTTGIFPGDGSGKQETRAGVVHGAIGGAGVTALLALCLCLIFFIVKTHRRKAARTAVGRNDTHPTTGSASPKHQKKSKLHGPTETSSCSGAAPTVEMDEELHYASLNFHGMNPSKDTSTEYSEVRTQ
Assay Overview: flow cytometry, IgG on cells expressing the mutant
Readout Label: Mean % WT Binding

Problem: # Mean % WT Binding lookup, item Refmab #2 (antibody, human IgG1, V domains shown, Tested in IgG format; human IgG1 Fc silent (PG-LALA)) VH: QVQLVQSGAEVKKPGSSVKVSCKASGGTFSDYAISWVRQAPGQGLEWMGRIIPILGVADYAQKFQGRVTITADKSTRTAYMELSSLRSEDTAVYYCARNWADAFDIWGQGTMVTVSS VL: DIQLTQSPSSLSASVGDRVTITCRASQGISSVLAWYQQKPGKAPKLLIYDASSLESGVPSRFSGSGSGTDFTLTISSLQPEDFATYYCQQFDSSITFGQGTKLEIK
Solution: 126 % of WT

Problem: Quick one: Refmab #1 (antibody, human IgG1, V domains shown, Tested in IgG format; human IgG1 (Absolute Antibody hP67.6, Cat. No. Ab00283-10.0); also called hP67.6) VH: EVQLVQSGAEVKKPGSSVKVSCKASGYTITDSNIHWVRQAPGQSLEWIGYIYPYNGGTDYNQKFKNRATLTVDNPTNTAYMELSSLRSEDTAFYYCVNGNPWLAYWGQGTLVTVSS VL: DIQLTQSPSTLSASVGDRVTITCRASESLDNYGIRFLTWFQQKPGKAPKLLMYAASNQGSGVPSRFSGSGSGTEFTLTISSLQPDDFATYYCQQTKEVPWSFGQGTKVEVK
Solution: 99.2 % of WT

Problem: Quick one: Refmab #4 (antibody, human IgG1, V domains shown, Tested in IgG format; human IgG1 Fc silent (PG-LALA)) VH: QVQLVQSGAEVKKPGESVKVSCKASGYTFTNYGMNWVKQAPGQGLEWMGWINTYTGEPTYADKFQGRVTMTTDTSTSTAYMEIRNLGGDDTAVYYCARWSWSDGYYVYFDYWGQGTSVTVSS VL: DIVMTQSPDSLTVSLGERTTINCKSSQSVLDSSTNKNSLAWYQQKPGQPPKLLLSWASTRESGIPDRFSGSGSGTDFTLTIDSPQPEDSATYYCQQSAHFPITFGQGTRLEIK
Solution: 4.5 % of WT

Problem: Quick one: Refmab #3 (antibody, human IgG1, V domains shown, Tested in IgG format; human IgG1 Fc silent (PG-LALA)) VH: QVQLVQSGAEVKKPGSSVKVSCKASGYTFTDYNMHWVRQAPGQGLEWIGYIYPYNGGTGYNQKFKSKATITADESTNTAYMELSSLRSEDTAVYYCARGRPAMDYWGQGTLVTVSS VL: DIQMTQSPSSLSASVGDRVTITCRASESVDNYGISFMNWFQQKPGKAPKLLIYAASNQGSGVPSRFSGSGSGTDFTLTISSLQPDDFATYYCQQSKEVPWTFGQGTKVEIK
Solution: 92.8 % of WT
